# System: Fibroblast
# assay: Multiplex assay against human fibroblast
# Assay type: toxicity, cell-based
# run_conditions: 48 h, 1 µM, compound concentration 1 uM, replicate 1
measure_name: Population Membrane Permeable-Phenotype (%)
One number for each entry, in %.

Example cases with answers are listed next.
molecule | quantitative_result
Cc1c(P(=S)(c2ccccc2)c2ccccc2)n2ccccc2[n+]1C/C=C/c1ccccc1.[Br-] | 6
Cc1ccc(S(=O)(=O)NC2c3ccccc3Oc3ccccc32)cc1 | 22
Oc1cccc(-c2nc(N3CCOCC3)c3oc4ncccc4c3n2)c1 [PI-103] | 20
CCCc1cc(C)[nH]c(=O)c1CNC(=O)c1cc(-c2ccc(N3CCN(C(C)C)CC3)nc2)cc2c1cnn2C(C)C | 7

Now consider the entry below.
Q. I am curious: what Population Membrane Permeable-Phenotype (%) value has been reported for CC(/C=C1\SC(=S)N(CCCC(=O)Nc2ccc(C(=O)O)c(O)c2)C1=O)=C\c1ccccc1 ?
A. 30

----------
Answer each item with its documented Growth Rate.
# Test system: Fibroblast
# assay: Incucyte cell viability with human fibroblast; further: filed as whole numbers so only -1 and 0 and 1 occur
# Format: toxicity, cell-based
# run_conditions: 24 h, 10 µM, compound concentration 10 uM, replicate number 2, timepoint 24 hours
Give bare numbers.

Observe how each entry below is paired with its result.
compound | assay_system | Growth Rate
CC(C)NCC(O)COc1cccc2ccccc12.Cl (stereo not drawn) [PROPRANOLOL HYDROCHLORIDE] | Fibroblast | 0
CCc1cc(Nc2nccc(-c3c(-c4ccc(OC)c(C(=O)Nc5c(F)cccc5F)c4)nc4ccccn34)n2)c(OC)cc1N1CCC(N2CCN(S(C)(=O)=O)CC2)CC1 | Fibroblast | 0
COc1ccc(Br)cc1S(=O)(=O)NC(=O)/C=C/c1ccccc1Cc1ccc2ccccc2c1 | Fibroblast | 1
CC(C)(Cc1ccccc1)NCC(O)c1ccc(O)c(NS(C)(=O)=O)c1.Cl (stereo not drawn) [ZINTEROL HYDROCHLORIDE] | Fibroblast | 1
COc1ccc2c(c1)O[C@H](c1ccc(OC)c(OC)c1)C[C@@H]2NC(=O)C1(c2ccc3c(c2)OC(F)(F)O3)CC1 [A-1596584] | Fibroblast | 0
Cc1cc2c(cc1C1(c3ccc(C(=O)O)cn3)CC1)C(C)(C)CCC2(C)C | Fibroblast | 1
C[C@@H](N)Cc1c[nH]cn1.Cl.Cl | Fibroblast | 1

Now examine the next entry.
Q. Fill in: Growth Rate of CNC(=O)Nc1ccc2c(c1)CC[C@@]21OC(=O)N(CC(=O)N(Cc2ccc(F)cc2)[C@@H](C)C(F)(F)F)C1=O [A-485] is ___
A. 0

----------
# Tested on: U2OS
# assay: Multiplex assay against U2OS
# Format: toxicity, cell-based
# run_conditions: human, 24 h, 1 µM, compound concentration 1 uM, replicate 2
measure_name: Population Tubulin-Different-Phenotype (%)
Give bare numbers, in %.

// worked examples, Population Tubulin-Different-Phenotype (%) included
chemical_string | readout_units | quantitative_result
CCCc1cc(C)[nH]c(=O)c1CNC(=O)c1cc(-c2ccc(N3CCN(C(C)C)CC3)nc2)cc2c1cnn2C(C)C | % | 82
Cc1ccc(S(=O)(=O)NC2c3ccccc3Oc3ccccc32)cc1 | % | 13

Q. Test system U2OS; read-out Population Tubulin-Different-Phenotype (%); what value for Cl.NC[C@@H]1O[C@H](C23CC4CC(CC(C4)C2)C3)Cc2c1ccc(O)c2O ?
A. 12
